Origin of values: patent US8017612B2

Target or test system: HCV polymerase (NS5B) type 1b (Hepatitis C virus genotype 1b)
Construct: a region encoding NS5B (J Virol 1991 March, 65(3), 1105-13, 544 amino acids after deletion of 47 amino acids on the C-terminal); 6xHis (C); made in house; host or cells: Escherichia coli
Sequence (P26663 2420-2963): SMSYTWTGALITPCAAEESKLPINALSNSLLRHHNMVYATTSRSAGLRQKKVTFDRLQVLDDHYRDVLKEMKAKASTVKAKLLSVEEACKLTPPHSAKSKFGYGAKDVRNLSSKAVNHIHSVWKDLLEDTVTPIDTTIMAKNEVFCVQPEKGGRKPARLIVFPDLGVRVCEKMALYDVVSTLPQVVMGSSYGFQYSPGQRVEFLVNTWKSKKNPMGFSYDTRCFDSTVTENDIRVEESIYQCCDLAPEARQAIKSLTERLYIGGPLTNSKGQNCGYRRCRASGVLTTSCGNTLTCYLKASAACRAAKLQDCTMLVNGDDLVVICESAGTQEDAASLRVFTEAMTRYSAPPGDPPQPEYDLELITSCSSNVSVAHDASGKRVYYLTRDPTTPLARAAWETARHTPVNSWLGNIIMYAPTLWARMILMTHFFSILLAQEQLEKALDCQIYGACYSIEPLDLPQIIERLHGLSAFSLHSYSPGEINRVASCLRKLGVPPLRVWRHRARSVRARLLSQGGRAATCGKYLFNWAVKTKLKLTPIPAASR
Method notes: Assay of enzyme (HCV polymerase) inhibitory activity, type 1b enzyme
Format: biochemical, HCV BK strain (type 1b)
Cond: HCV polymerase inhibitory activity (IC50), 1b, type 1b enzyme 0.5 μg/ml, 25° C., 60 min
Structures can show the parent of a compound that is named as a salt.
Readout name: IC50

{"Compound": "CC(=O)N1CCN(S(=O)(=O)c2ccc(CC(C)C)cc2)[C@@H](C(=O)NCc2ccc(C(C)C)cc2)C1", "Readout name": "IC50", "Observed": "< 100 nM"}
{"Compound": "CCCc1ccc(CNC(=O)[C@H]2CN(c3nc(C(=O)O)c(COC)s3)CCN2S(=O)(=O)c2ccc(OC(F)(F)F)cc2)cc1", "Readout name": "IC50", "Observed": "< 100 nM"}
{"Compound": "CC(=O)N1CCN(S(=O)(=O)c2ccc(-c3cc(C(F)(F)F)on3)s2)C(C(=O)NCc2ccc(C(F)(F)F)cc2)C1 (centres unmarked)", "Readout name": "IC50", "Observed": "> 1000 nM"}
{"Compound": "CC(C)c1ccc(CNC(=O)[C@H]2CN(c3cc(C(=O)O)ccn3)CCN2S(=O)(=O)c2ccc(C(F)(F)F)cc2)cc1 [Example 349, trifluoroacetate]", "Readout name": "IC50", "Observed": "100 to 1000 nM"}
{"Compound": "CC(=O)N1CCN(S(=O)(=O)c2ccc(C(C)(C)C)cc2)[C@@H](C(=O)NCc2ccc(C(C)C)cc2)C1", "Readout name": "IC50", "Observed": "< 100 nM"}
{"Compound": "CCCc1ccc(S(=O)(=O)N2CCN(C(C)=O)C[C@@H]2C(=O)NCc2ccc(C(C)C)cc2)c(F)c1", "Readout name": "IC50", "Observed": "< 100 nM"}
{"Compound": "COC(=O)c1ccc(NC(=O)N2CCN(S(=O)(=O)c3ccc(C(F)(F)F)cc3)[C@@H](C(=O)NCc3ccc(C(C)C)cc3)C2)cc1", "Readout name": "IC50", "Observed": "100 to 1000 nM"}
{"Compound": "CC(=O)N1CCN(S(=O)(=O)c2ccc(C(C)C)cc2)C(C(=O)NCc2ccc(Cl)cc2Cl)C1 (centres unmarked)", "Readout name": "IC50", "Observed": "> 1000 nM"}
{"Compound": "O=C(NCc1ccc(-c2cccs2)cc1)[C@H]1CN(c2cnc3cncnc3n2)CCN1S(=O)(=O)c1ccc(OC(F)(F)F)cc1", "Readout name": "IC50", "Observed": "< 100 nM"}
{"Compound": "CC(=O)N1CCN(S(=O)(=O)c2ccc3c(c2)CCCCC3)[C@@H](C(=O)NCc2ccc(C(C)C)cc2)C1", "Readout name": "IC50", "Observed": "< 100 nM"}
{"Compound": "CCC(F)(F)c1ccc(CNC(=O)[C@H]2CN(C(=O)Nc3nnc(CO)s3)CCN2S(=O)(=O)c2ccc(OC(F)(F)F)cc2)cc1", "Readout name": "IC50", "Observed": "< 100 nM"}
{"Compound": "COc1ccc(S(=O)(=O)N2CCN(C(C)=O)C[C@@H]2C(=O)NCc2ccc(C(C)C)cc2)cc1C(C)C", "Readout name": "IC50", "Observed": "< 100 nM"}
{"Compound": "CCCc1ccc(S(=O)(=O)N2CCN(c3nc(C)c(C(=O)OC(C)(C)C)s3)C[C@@H]2C(=O)NCc2ccc(C(C)C)cc2C)cc1", "Readout name": "IC50", "Observed": "100 to 1000 nM"}
{"Compound": "COc1ccccc1CC(=O)N1CCN(S(=O)(=O)c2ccc(C(F)(F)F)cc2)[C@@H](C(=O)NCc2ccc(C(C)C)cc2)C1", "Readout name": "IC50", "Observed": "100 to 1000 nM"}
{"Compound": "COc1ccc(S(=O)(=O)N2CCN(C(C)=O)CC2C(=O)NCc2ccc(C(F)(F)F)cc2)cc1 (centres unmarked)", "Readout name": "IC50", "Observed": "> 1000 nM"}
{"Compound": "CCC(F)(F)c1ccc(CNC(=O)[C@H]2CN(c3cnc4cnccc4n3)CCN2S(=O)(=O)c2ccc(OC(F)(F)F)cc2)cc1", "Readout name": "IC50", "Observed": "< 100 nM"}
{"Compound": "CCCc1ccc(CNC(=O)[C@H]2CN(c3nc(C)c(C(=O)O)s3)CCN2S(=O)(=O)c2ccc(OC(F)(F)F)cc2)cn1", "Readout name": "IC50", "Observed": "< 100 nM"}
{"Compound": "CC(C)c1ccc(S(=O)(=O)N2CCN(C)CC2C(=O)NCc2ccc(C(F)(F)F)cc2)cc1 (centres unmarked)", "Readout name": "IC50", "Observed": "> 1000 nM"}
{"Compound": "Cc1nc(N2CCN(S(=O)(=O)c3ccc(OC(F)(F)F)cc3)[C@@H](C(=O)NCc3ccc(C(C)(C)C)cc3)C2)sc1C#N", "Readout name": "IC50", "Observed": "< 100 nM"}
{"Compound": "CCC(F)(F)c1ccc(CNC(=O)[C@H]2CN(c3cnc(C(=O)O)cn3)CCN2S(=O)(=O)c2ccc(OC(F)(F)F)cc2)cc1", "Readout name": "IC50", "Observed": "< 100 nM"}
{"Compound": "CCCc1ccc(CNC(=O)[C@H]2CN(c3nc(C)c(C(=O)O)s3)CCN2S(=O)(=O)c2ccc(OC(F)(F)F)c(CCC)c2)cc1", "Readout name": "IC50", "Observed": "< 100 nM"}
{"Compound": "CCC(F)(F)c1ccc(CNC(=O)[C@H]2CN(C(C)=O)CCN2S(=O)(=O)c2ccc(OC(F)(F)F)cc2)cc1", "Readout name": "IC50", "Observed": "< 100 nM"}
{"Compound": "CCCc1ccc(CNC(=O)[C@H]2CN(C(=O)Cn3ncnn3)CCN2S(=O)(=O)c2ccc(OC(F)(F)F)cc2)cc1", "Readout name": "IC50", "Observed": "< 100 nM"}
{"Compound": "CC(C)c1ccc(S(=O)(=O)N2CCN(C(=O)Cc3ccccc3)CC2C(=O)NCc2ccc(C(F)(F)F)cc2)cc1 (centres unmarked)", "Readout name": "IC50", "Observed": "> 1000 nM"}
{"Compound": "CCCc1ccc(CNC(=O)[C@H]2CN(c3nc(CO)cs3)CCN2S(=O)(=O)c2ccc(OC(F)(F)F)cc2)cc1", "Readout name": "IC50", "Observed": "< 100 nM"}
{"Compound": "CCCc1ccc(CNC(=O)[C@H]2CN(c3nc(C(F)(F)F)c(C(=O)O)s3)CCN2S(=O)(=O)c2ccc(OC(F)(F)F)cc2)cc1", "Readout name": "IC50", "Observed": "< 100 nM"}
